- System: P. falciparum stage V gametocytes
- Parameters: BacTiter-Glo ATP luminescence viability of purified stage V gametocytes in 384-well plates, per cent inhibition versus DMSO
- Recorded conditions: 48 h, 5 µM; inhibitor
Screen size: about 13,000 compounds; about 3,200 (25%) showed an effect of 50% or more. The list shows a part of the results.
Property: % Inhibition
Give the number first and the unit second.

The following compounds have reported results that may help.
>>> endpoint_result("COc1ccc2nccc([C@@H](O)CN3CCC(NC(=O)C(c4ccsc4)N4CCN(c5ccccc5)CC4)CC3)c2c1 (stereo partly shown)")
"-15.82%"
>>> endpoint_result("COC(=O)c1ccc(Nc2nccc(Nc3ccc(Oc4ccccc4)cc3)n2)cc1")
"-28.54%"
>>> endpoint_result("CC1=C(C(=O)OC(C)C)C(c2ccccc2Cl)C2=C(CC(c3ccccc3)CC2=O)N1 (stereo not shown)")
"34.25%"

Please find the next compound below.
stdin: Which % Inhibition is listed for `CCCCC(=O)Nc1ccc(Nc2nc(C)cc(N3CCCC3)n2)cc1` ?
stdout: 46.79%
